Biological target: human CYP11B1 (Homo sapiens, UniProt P15538)
Sequence (P15538 25-503): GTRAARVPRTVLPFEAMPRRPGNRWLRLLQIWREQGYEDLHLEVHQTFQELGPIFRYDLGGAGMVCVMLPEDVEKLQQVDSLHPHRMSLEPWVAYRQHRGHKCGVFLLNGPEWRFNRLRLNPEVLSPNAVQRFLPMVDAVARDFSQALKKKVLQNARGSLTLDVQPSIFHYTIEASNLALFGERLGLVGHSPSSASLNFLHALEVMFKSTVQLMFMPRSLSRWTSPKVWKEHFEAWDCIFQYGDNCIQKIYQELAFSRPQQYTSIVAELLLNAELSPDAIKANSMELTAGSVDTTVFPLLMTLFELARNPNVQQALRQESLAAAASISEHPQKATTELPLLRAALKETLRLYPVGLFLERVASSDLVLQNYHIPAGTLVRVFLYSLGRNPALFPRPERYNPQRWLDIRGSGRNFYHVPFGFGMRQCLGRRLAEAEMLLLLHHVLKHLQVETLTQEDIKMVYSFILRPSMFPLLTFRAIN
Test: Inhibition of hCYP11B1 in transfected V79 cells
Details: hamster V79 cells expressing human CYP11B1; substrate 11-deoxycortisol 200 nM
pIC50: −log10 of the molar value.
QUANTITY MEASURED: pIC50

Some compounds with recorded pIC50:
compound="N#Cc1ccc(-c2cncc3c2CCN3S(=O)(=O)c2ccc(C#N)cc2)cc1 [C15]" quantity_measured=pIC50 data_value=9.80
compound="N#Cc1ccc(-c2cncc3c2OCCN3C(=O)C2CNC2)cc1 [O56]" quantity_measured=pIC50 data_value=6.53
compound="O=C(C1CN(Cc2cccc(F)c2)C1)N1CCOc2c(-c3cc4ccc(Cl)cc4[nH]3)cncc21 [O91]" quantity_measured=pIC50 data_value=5.38
compound="N#Cc1ccc(-c2cncc3c2OCCN3C(=O)C2CN(Cc3cccc(C#N)c3)C2)cc1 [O80]" quantity_measured=pIC50 data_value=6.73

a. COc1ccc(S(=O)(=O)N2CCSc3c(-c4ccc(F)c(Cl)c4)cncc32)cc1 [S34]
b. N#Cc1ccc(-c2cncc3c2CCN3S(=O)(=O)c2cccc(F)c2)cc1 [C6]
c. COc1cccc(S(=O)(=O)N2CC(S(=O)(=O)N3CCOc4c(-c5ccc(C#N)cc5)cncc43)C2)c1 [O119]
d. O=C1Cc2cc(-c3cncc4c3OCCN4C(=O)C3CN(Cc4cccc(F)c4)C3)ccc2N1 [O89]
Rank by pIC50 (largest to smallest). State the ranking by listing the labels in the requested order.
b, a, c, d
(b: 8.92, a: 7.87, c: 7.42, d: 5.59)

====

target: human CYP11B2 (Homo sapiens, UniProt P19099); assay: Inhibition of hCYP11B2 in transfected V79 cells; details: hamster V79 cells expressing human CYP11B2; substrate 11-deoxycorticosterone 200 nM
Sequence (P19099 25-503): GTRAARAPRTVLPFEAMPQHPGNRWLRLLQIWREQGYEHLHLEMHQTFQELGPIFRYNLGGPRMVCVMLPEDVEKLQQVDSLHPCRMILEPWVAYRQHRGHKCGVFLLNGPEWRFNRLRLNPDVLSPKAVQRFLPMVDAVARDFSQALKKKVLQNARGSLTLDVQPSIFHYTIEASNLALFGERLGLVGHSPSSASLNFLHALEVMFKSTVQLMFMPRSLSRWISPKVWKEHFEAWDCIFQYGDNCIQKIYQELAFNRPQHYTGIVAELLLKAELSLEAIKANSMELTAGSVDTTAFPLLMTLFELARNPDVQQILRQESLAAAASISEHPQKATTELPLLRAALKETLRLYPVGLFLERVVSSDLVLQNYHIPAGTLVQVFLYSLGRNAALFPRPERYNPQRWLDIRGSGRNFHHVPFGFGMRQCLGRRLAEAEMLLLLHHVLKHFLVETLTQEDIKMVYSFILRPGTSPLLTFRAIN
QUANTITY MEASURED: IC50 (nM)

molecule="COc1ccc(C(=O)N2CCSc3c(-c4ccc(C#N)cc4)cncc32)cc1 [S6]" data_value=53
molecule="COc1ccc(C(=O)N2CC(S(=O)(=O)N3CCSc4c(-c5ccc(C#N)cc5)cncc43)C2)cc1 [S72]" data_value=2.1
molecule="N#Cc1ccc(-c2cncc3c2OCCN3C(=O)CBr)cc1 [O34]" data_value=17.4

I. COc1ccc(S(=O)(=O)N2CCOc3c(-c4ccc(C#N)cc4)cncc32)cc1 [O8]
II. N#Cc1ccc(-c2cncc3c2OCCN3C(=O)c2cccc(Cl)c2)cc1 [O29]
Please indicate which entry, I or II , has the lower recorded IC50 value. # reply format: chosen label
I
(I: 0.02 nM, II: 5.9 nM)
